Reference source for all entries: PubChem BioAssay

Target: PEG-3 (UniProt Q6IN02)
Sequence (Q6IN02 whole entry, looked up): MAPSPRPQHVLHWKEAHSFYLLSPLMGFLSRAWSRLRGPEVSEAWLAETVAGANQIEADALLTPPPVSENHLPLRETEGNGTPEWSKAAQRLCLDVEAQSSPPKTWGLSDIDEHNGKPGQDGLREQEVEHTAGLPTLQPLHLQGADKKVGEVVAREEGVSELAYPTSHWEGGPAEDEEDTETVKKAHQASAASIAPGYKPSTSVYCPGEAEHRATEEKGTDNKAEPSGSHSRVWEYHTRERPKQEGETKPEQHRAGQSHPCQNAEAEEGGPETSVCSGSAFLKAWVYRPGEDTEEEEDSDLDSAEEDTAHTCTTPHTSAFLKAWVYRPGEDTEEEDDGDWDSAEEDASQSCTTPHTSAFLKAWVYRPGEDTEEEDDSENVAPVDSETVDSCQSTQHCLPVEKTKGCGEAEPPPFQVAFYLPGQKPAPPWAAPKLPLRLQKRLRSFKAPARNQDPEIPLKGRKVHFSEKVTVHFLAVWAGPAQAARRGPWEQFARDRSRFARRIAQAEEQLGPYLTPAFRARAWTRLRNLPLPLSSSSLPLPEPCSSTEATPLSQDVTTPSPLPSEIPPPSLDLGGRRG
Assay: Peg3 promoter luciferase inhibitors, potency, dose response, cell-based, HeLa, CREF/GAPDH counter-screen panel (AID 624167)
Conditions: CREF/GAPDH counter-screens; HeLa PEG-Prom luciferase reporter, overnight, run 1, dose range 1, at 100 µM (top of the series) unless noted

compound | inhibition / %
Cc1cc(C(=O)COC(=O)c2ccccc2Br)c(C)n1CC1CCCO1 (stereo unspecified) | 95.8
Cc1ccc(NC(=S)NC(=O)c2ccc(F)cc2)cc1S(=O)(=O)Nc1ccccc1Cl | 70.7
COC(=O)C1C=CC(OC2OC(COC(C)=O)C(OC(C)=O)C(OC(C)=O)C2OC(C)=O)n2c(=O)n(-c3ccccc3)c(=O)n21 (stereo unspecified) | 99.8
CC(=O)c1ccc(Nc2cc(C)nc3ccc(C)cc23)cc1 | 99.2
COc1cc(NC(=O)Nc2nc(C(N)CCc3ccccc3)cs2)cc(OC)c1OC (stereo unspecified) | 99.2
N#Cc1cc2c(nc1SC1CC(=O)N(c3ccccc3)C1=O)CCC2 (stereo unspecified) | 33.5
CCCOc1ccc(NC(=O)CC2C(=O)N(CC)C(=S)N2CCCN2CCN(Cc3ccccc3)CC2)cc1 (stereo unspecified) | 98.9
NC(C(=O)O)C1ON=C(Cl)C1O (stereo unspecified) | 41.4
Cc1ccc(C(=O)Nc2cc3ccccc3oc2=O)cc1 | 84.5
Cn1nnnc1Sc1ncnc2scc(-c3ccsc3)c12 | 102
COCCn1c(C)cc(C(=O)COC(=O)c2ccccc2Br)c1C | 95.9

* * *

Molecular target: PEG-3 (UniProt Q6IN02)
Experiment: Peg3 promoter luciferase inhibitors, potency, dose response, cell-based, HeLa, CREF/GAPDH counter-screen panel (AID 624167)
Settings: CREF/GAPDH counter-screens; HeLa PEG-Prom luciferase reporter, overnight, run 2, dose range 1, at 100 µM (top of the series) unless noted
Each entry below lists one item and its recorded inhibition value.
readout_type: inhibition (%)

compound | readout_type | scale_unit | reported_value
COc1ccc2c(c1)C=C([C@@H]1C[C@H]3CN(c4ccccc4)C(=O)[C@]34CCCN14)CO2 | inhibition | % | 74
Cc1cccc(CN2C(=O)/C(=C\c3ccc(C(=O)NCCN4CCOCC4)cc3)Sc3ccccc32)c1 | inhibition | % | 99.5
CC1(Cc2ccc(Cl)c(Cl)c2)C(=O)Nc2ccc(S(=O)(=O)NC3CCCCC3)cc21 (configuration not stated) | inhibition | % | 95.4
c1ccc(-c2cc(-c3nc4ccccc4[nH]3)c3ccccc3n2)cc1 | inhibition | % | 88.6
COc1ccc(C(=O)/C=C/Nc2ccccn2)cc1 | inhibition | % | 94.2
CCN1C/C(=C/c2ccc(N3CCOCC3)cc2)C(=O)/C(=C/c2ccc(N3CCOCC3)cc2)C1 | inhibition | % | 96.4
Cc1oc(-c2ccc3c(c2)OCCO3)cc1C(=O)O | inhibition | % | 99.2
COCCn1c(C)cc(C2=NNC(=NC3CC3)SC2)c1C | inhibition | % | 101
NC1=C(Br)C(=O)c2ncccc2C1=O | inhibition | % | 101
CN1CCN(c2ccc(-c3ccc4ccccc4n3)cc2)CC1 | inhibition | % | 101
O=C(Cn1ncc(Cl)c(Cl)c1=O)N1CCc2ccccc21 | inhibition | % | 98.6
Cc1ccsc1C(=O)OCC(=O)c1cc(C)n(CC2CCCO2)c1C (configuration not stated) | inhibition | % | 92.7
CCOC(=O)C1=C(COCCN)NC(C)=C(C(=O)OC)C1c1ccccc1Cl (configuration not stated) | inhibition | % | 100
COc1ccc(/C=C/C(=O)c2ccc3c(c2)OCCO3)cc1[N+](=O)[O-] | inhibition | % | 99
c1ccc(C[C@H]2CNCCN2CCCCC2CCCCC2)cc1 | inhibition | % | 101
O=C(CCl)N1N=C(c2ccco2)CC1c1cccs1 (configuration not stated) | inhibition | % | 99.3
O=C(O)c1ccc(N/N=C/c2ccc(OC(=O)c3ccccc3Cl)cc2)cc1 | inhibition | % | 71.9
OC[C@@H]1[C@@H](c2ccc(Cl)cc2)C(c2cccc(Cl)c2)=NN1c1ccccc1 | inhibition | % | 101
CC(=O)OCCNc1cc(SCc2ccco2)c2nonc2c1[N+](=O)[O-] | inhibition | % | 98.1
O=C(Cc1csc(Nc2nc(=S)[nH]c3ccccc23)n1)NCc1ccccc1Cl | inhibition | % | -45.6
Cc1cc(C)c2c(N)c(C(=O)Nc3ncc(C)s3)sc2n1 | inhibition | % | 98.2
Cc1cc(/C=c2/sc3nc4ccccc4n3c2=O)c(C)n1-c1ccccn1 | inhibition | % | 84.5

* * *

Each entry below lists one item and its recorded inhibition value.
Assay: inhibitors of PAF-induced NFkB signaling in CF airway cells, dose response, cell-based, uHTS hits, panel, cytotoxicity readout (AID 624344)
Details: CF bronchial epithelial cells, PAF-induced NFkB reporter inhibition, with PAF, run 2; at 79 µM (top of the series) unless noted

compound | inhibition (%)
Fc1cccc(Cl)c1/C=N/Nc1c(Cl)cncc1Cl | 104
CCC1(O)C(=O)OCc2c1cc1n(c2=O)Cc2cc3cc(O)ccc3nc2-1 (configuration not stated) | 88.8
CN(C)C=Nc1c(C(=O)c2ccccc2)sc2nccc(N(C)C)c12 | 105
CC(=O)Nc1ccc(NC(=O)c2nc(S(=O)(=O)Cc3cccc(C)c3)ncc2Cl)cc1 | 85.4
COc1ccc2ncn(-c3ccccc3)c2c1 | 101
COc1ccc(-c2cc(-c3nc4ccccn4c3NCc3ccccc3)ccc2OC)cc1 | 96.6
CC1=C(C(=O)OCc2ccc3c(c2)OCO3)C(c2ccc(O)c([N+](=O)[O-])c2)NC(=O)N1 (configuration not stated) | 89
C=C1C(=O)C2=CC1CCC(=O)C1(C)CCC(OC(C)=O)C(C)(C)C1CC2O (configuration not stated) | 107
Cc1nn(-c2ccccn2)c2c1-c1nc(N)ncc1CC2 | 102
Cc1nc2sc(C(N)=O)c(N)c2c(C)c1CC(=O)c1ccccc1 | 80.3
COc1ccc(-c2cc(=O)oc3cc(OC(=O)C4CCCCC4)c(Cl)cc23)cc1 | 102
COc1cc(-c2cc(C(=O)Nc3ccc(S(=O)(=O)NCc4ccco4)cc3)c3ccccc3n2)cc(OC)c1OC | 102
Cc1cccc(N2CCN(C(=O)c3[nH]c(C(F)(F)F)nc3-c3ccccc3)CC2)c1C | 103
O=c1cc(-c2ccccc2Cl)oc2c([N+](=O)[O-])c(O)cc(O)c12 | 109
COc1cc(-c2cnc3c(NC=O)cc(-c4ccc(C)cc4)cn23)cc(OC)c1OC | 70.5
Cc1ccc2[nH]cc(C(=O)CCl)c2c1 | 72
CCN(c1ccc(OC)cc1)c1ncnc2nc[nH]c12 | 98
CCCCN(CCCC)c1ncnc2nc[nH]c12 | 118
O=C(CCS(=O)(=O)c1ccccc1)N(CCCN1CCOCC1)c1nc2c(F)cccc2s1 | 95.9
O=C(Nc1cccc2[nH]ncc12)c1ccc(F)cc1 | 95.5
CCCCCCCCCCCCCCC(O)C[N+](C)(CCO)CCO (configuration not stated) | 96.1

* * *

Target: PEG-3 (UniProt Q6IN02)
Assay: Peg3 promoter luciferase inhibitors, potency, dose response, cell-based, HeLa, CREF/GAPDH counter-screen panel (AID 624167)
Details: CREF/GAPDH counter-screens; HeLa PEG-Prom luciferase reporter, overnight, run 1, dose range 1, at 100 µM (top of the series) unless noted

compound | inhibition
COc1cc(CNC(C)(C)CO)cc(Br)c1OCc1ccc(Cl)cc1 | 99%
Cc1ccc(-c2nnc(SCC(=O)Nc3ccccc3F)o2)cc1 | 98.6%
NS(=O)(=O)c1ccc(CCNc2nn3c(-c4ccc(F)c(Cl)c4)cnc3s2)cc1 | 66.9%
Nc1ccc(-c2nc3ccc(C(=O)O)cc3s2)cc1 | 98.2%
CC1CCCCN1CCNC(=O)c1ccc2c(=O)n(Cc3ccc(Cl)cc3)c(=S)[nH]c2c1 (stereo not drawn) | 101%
O=C(CCN1C(=O)/C(=C/c2ccc(F)cc2)SC1=S)N[C@@H](CO)Cc1ccccc1 | 36.9%
CC(NS(=O)(=O)OCC(Cl)(Cl)Cl)c1ccc(C(C)(C)C)cc1 (stereo not drawn) | 101%
O=C(COc1ccc2c(c1)CCC2)Nc1ccccn1 | 98.8%
Cc1nc(N2CCN(S(=O)(=O)c3ccccc3C#N)CC2)c2c(-c3ccccc3)csc2n1 | -7.38%
CC(C)CC(N)c1csc(NC(=O)Nc2ccccc2C(C)C)n1 (stereo not drawn) | 99%
C=CCn1c(C)cc(C(=O)COc2ccc(C)nc2[N+](=O)[O-])c1C | 61.3%
CCN(c1ccccc1)S(=O)(=O)c1ccc(C(=O)N(CCCN(C)C)c2nc3cc4c(cc3s2)OCO4)cc1 | 97.6%
Cc1ccc(CC2(OCCN(C)C)CCC(C(C)(C)C)CC2)cc1 (stereo not drawn) | 99.6%
Cc1cccc(-n2ncc3c(N(C)C4CCCCC4)ncnc32)c1 | 89%
CCc1ccn2cc(-c3ccc4c(c3)OCO4)nc2c1 | 96%
O=C1/C(=C\c2cccc(O)c2O)SC(=S)N1Cc1ccccc1 | 99.6%
CCCC(=O)NC(c1ccccc1)c1ccc2cccnc2c1O (stereo not drawn) | 36.8%
COc1cccc(NC(=O)CN(C)C(=O)c2cccnc2Nc2cccc(C(F)(F)F)c2)c1 | 102%
O=C(/C=C/Nc1ccccc1Br)c1ccccn1 | 96.6%
Cc1ccccc1CNC(=O)C1CCCN(c2nnc(C)c3c(C)n(-c4ccccc4)nc23)C1 (stereo not drawn) | 99%
CCN1CCN(c2ncc(C(=O)Nc3cc(Cl)ccc3OC)c3ccccc23)CC1 | 100%
COc1ccc(-c2cc(C(=O)N3CCN(c4ncccn4)CC3)c3ccccc3n2)c(OC)c1 | 70%
Cc1cc(/C=c2/sc3nc4ccccc4n3c2=O)c(C)n1-c1ccccn1 | 84.1%
CCOc1ccc2[nH]c3c(NCCc4ccc(OC)c(OC)c4)ncnc3c2c1 | 99%
Cc1ccc2[nH]c(=O)c(C3C(C#N)=C(N)Oc4c3ccc3cccnc43)cc2c1 (stereo not drawn) | 99.2%
CCOc1ccc(C(=O)O/N=C(\N)c2ccccn2)cc1 | 98%
COc1cccc(Nc2nc(C(N)Cc3ccccc3)cs2)n1 (stereo not drawn) | 97.8%
COc1ccc(-c2cc(C(F)F)n3ncc(C(=O)n4ccnc4C)c3n2)cc1 | 99.6%
CCN(CC)CCNC(=O)c1ccc(NC(=O)c2cccc(S(=O)(=O)N(C)C3CCCCC3)c2)cc1 | 100%
COc1cccc(NC(=O)Nc2cccc(C(=O)O)c2)c1 | 87%
O=C(NC1CCCCC1)C(c1cccnc1)N(C(=O)CCl)c1cccc(Cl)c1 (stereo not drawn) | 97.7%
N/C(=N\OC(=O)c1ccccc1)C(C(=O)NOC(=O)c1ccccc1)C1CCCCC1 (stereo not drawn) | 98.8%
CCN(CC)CCOc1ccc(/C(=C(/Cl)c2ccccc2)c2ccccc2)cc1 | 102%
Cc1ccsc1C(=O)OCC(=O)c1cc(C)n(CC2CCCO2)c1C (stereo not drawn) | 96.8%
Cc1cc(C)c(CN2CCN(CCCn3cnc(C(=O)Nc4ccc(C)c(C)c4)n3)CC2)c(C)c1 | 102%
Cc1ccc(S(=O)(=O)N(C)C)cc1NC(=O)c1cncc(Br)c1 | 82.4%
CCc1nccn1C(=O)c1cnn2c(C(F)F)cc(-c3ccc(C)cc3)nc12 | 99.1%
COc1ccc(C2c3c(ncn(CCCN4CCOCC4)c3=N)Oc3ccc4ccccc4c32)cc1OC (stereo not drawn) | 102%
CN(C)c1ccc(/C=C/c2nc3ccccc3s2)cc1 | 94.8%
CCOc1ccc2c(ccc(/C=C/c3cc(C)c4cccnc4c3O)[n+]2C)c1 | 101%
O=C(CCCN1C(=O)/C(=C/c2cccc(Br)c2)SC1=S)Nc1cccnc1 | 101%
COc1cccc(-c2cnc3c(NC=O)cc(-c4cccc(C(=O)N(C)C)c4)cn23)c1 | 98.8%
CN(CCOc1ccc(Cl)cc1)C(=O)c1cc(-c2ccco2)nc2ccccc12 | 99.6%
